Molecular target: human Siglec-7 on primary human monocyte-derived dendritic cells (human, UniProt Q9Y286 19-467)
Sequence (Q9Y286 19-467): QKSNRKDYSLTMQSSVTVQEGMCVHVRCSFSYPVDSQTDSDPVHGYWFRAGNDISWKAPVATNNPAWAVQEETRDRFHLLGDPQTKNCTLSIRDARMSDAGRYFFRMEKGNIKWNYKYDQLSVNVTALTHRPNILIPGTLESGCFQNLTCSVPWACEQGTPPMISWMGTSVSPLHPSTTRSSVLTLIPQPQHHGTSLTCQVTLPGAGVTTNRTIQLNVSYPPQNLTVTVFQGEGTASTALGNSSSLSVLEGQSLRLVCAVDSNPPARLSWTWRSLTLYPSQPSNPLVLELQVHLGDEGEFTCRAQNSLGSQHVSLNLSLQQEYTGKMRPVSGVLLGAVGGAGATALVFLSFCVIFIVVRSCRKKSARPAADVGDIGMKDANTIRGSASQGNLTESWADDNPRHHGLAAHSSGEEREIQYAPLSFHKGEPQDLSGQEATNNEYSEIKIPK
Test: cell-based or functional assay
Test Readout: Fold increase in potency compared to Chimeric Ab (fold)
Please reply with the bare figure in fold and do not write the unit itself.

Worked examples, 3 binders total:
binder="S7AB-H8.35 (antibody, V domains shown) VH: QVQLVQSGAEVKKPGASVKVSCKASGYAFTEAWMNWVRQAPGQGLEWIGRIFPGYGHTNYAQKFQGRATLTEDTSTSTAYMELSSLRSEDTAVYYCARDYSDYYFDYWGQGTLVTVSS VL: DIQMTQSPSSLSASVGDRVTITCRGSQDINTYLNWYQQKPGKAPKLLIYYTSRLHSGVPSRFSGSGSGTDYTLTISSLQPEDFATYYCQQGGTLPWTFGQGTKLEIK" readout_value=5
binder="S7AB-H8.31 (antibody, V domains shown) VH: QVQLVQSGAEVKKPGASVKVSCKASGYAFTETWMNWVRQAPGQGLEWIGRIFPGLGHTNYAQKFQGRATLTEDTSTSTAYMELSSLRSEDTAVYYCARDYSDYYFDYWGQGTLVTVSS VL: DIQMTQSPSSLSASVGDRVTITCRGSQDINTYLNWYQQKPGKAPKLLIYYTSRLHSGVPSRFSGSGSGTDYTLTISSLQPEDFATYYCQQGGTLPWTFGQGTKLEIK" readout_value=7.2
binder="S7AB-H8.20 (antibody, V domains shown) VH: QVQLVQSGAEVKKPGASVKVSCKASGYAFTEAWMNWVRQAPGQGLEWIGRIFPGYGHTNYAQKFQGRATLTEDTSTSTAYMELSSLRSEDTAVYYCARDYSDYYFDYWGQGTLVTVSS VL: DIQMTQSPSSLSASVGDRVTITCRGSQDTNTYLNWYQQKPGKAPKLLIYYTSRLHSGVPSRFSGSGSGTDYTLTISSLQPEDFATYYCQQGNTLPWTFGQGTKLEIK" readout_value=4.2

Please look up its Fold increase in potency compared to Chimeric Ab: S7AB-H8.14 (antibody, V domains shown) VH: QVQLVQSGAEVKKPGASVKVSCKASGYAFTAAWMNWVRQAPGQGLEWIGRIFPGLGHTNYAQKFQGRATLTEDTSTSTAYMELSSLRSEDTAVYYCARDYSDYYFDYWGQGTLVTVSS VL: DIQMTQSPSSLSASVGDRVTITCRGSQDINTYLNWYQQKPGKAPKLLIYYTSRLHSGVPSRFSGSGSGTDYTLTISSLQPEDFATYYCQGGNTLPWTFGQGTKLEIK
0.5

# lookup: Fold increase in potency compared to Chimeric Ab of S7AB-H8.9.2 (antibody, V domains shown) VH: QVQLVQSGAEVKKPGASVKVSCKASGYAFTAAWMNWVRQARGQRLEWIGRIFPGLGHTNYAQKFQGRATLTEDTSTSTAYMELSSLRSEDTAVYYCARDYSDYYFDYWGQGTLVTVSS VL: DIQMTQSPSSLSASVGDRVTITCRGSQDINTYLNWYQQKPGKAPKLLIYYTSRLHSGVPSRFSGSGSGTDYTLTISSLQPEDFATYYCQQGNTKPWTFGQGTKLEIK
9.2

What value of Fold increase in potency compared to Chimeric Ab has been recorded for this entry: S7AB-H8.16 (antibody, V domains shown) VH: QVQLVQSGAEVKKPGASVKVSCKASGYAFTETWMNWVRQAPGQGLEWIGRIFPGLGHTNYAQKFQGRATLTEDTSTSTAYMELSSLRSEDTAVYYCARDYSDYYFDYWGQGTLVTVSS VL: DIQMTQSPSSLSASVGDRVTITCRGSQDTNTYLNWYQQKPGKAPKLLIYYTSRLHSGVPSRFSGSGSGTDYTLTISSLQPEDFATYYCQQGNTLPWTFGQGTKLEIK
2.9

# Fold increase in potency compared to Chimeric Ab lookup, item S7AB-H8.29.2 (antibody, V domains shown) VH: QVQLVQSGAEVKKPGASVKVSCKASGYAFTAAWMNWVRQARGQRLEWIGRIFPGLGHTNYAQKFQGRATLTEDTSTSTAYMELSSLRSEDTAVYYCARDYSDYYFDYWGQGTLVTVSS VL: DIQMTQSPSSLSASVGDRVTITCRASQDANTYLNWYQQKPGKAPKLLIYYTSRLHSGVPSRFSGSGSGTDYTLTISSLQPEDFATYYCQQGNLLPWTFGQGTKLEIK
12.2

Find the recorded Fold increase in potency compared to Chimeric Ab belonging to S7AB-H8.29.1 (antibody, V domains shown) VH: QVQLVQSGAEVKKPGASVKVSCKASGYAFTAAWMNWVRQAPGQRLEWIGRIFPGLGHTNYAQKFQGRATLTEDTSTSTAYMELSSLRSEDTAVYYCARDYSDYYFDYWGQGTLVTVSS VL: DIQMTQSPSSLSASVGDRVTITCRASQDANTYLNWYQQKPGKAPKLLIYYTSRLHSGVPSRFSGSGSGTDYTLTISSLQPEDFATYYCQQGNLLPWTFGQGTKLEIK and report it.
20.4
